Values from patent US20230390362A1

Biological target: T1, human GIP receptor (human, UniProt P48546 22-466)
T1 sequence (looked up): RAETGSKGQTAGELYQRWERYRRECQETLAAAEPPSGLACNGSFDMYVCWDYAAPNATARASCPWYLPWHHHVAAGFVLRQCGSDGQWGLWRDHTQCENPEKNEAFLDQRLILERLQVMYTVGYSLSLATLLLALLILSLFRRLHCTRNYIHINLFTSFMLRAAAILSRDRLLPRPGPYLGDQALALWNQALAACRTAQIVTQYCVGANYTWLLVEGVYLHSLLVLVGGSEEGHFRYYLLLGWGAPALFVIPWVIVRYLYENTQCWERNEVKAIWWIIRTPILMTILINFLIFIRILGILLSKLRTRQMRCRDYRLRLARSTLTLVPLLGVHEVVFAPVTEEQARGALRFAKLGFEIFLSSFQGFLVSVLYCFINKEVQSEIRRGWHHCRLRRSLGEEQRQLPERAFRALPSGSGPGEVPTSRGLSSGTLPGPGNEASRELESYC
Assay: cell-based or functional assay
Positions of bridges follow the written chain, without caps; N, C: chain ends. Non-standard residues stand in square brackets, D forms with d. No end group written: not given here. Aib = CC(C)(N)C(=O)O
# note: exactly 3% is not below, so it is 0; use 1 for In vitro activity relative to native peptide (%), vs. GIP (cAMP EC50) strictly under it

binder="H[Aib]QGTFTSDKSKYLDERACQDFVQWLLDGGPSSGAPPPS [trigonal agonist of SEQ ID NO: 40]" group=1
binder="Y[Aib]QGTFTSDYSKYLDEKRAKEFVQWLLDCHPSSGQPPPS (bridge 16-20) [trigonal agonist of SEQ ID NO: 97]" group=1

API: the following record is the query input.
Task: Is 3% strictly greater than the binder's reported In vitro activity relative to native peptide (%), vs. GIP (cAMP EC50)? binder: H[Aib]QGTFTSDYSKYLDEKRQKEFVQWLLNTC (bridge 16-20) [trigonal agonist of SEQ ID NO: 51]
Result: 1
